- Tested on: in vivo angiogenesis, blood vessel count
- PROTOCOL_TEXT: reduction of blood vessel formation in vivo – HTS, in vivo study (AID 732);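 note: zebrafish embryos dosed at one day post fertilization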
- PARTICULARS: hits give low values;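 tested at 30 µM in the well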
Threshold 90%. vessel count % control below it: y. vessel count % control at it or above: n.

>  <MOLECULE>
Cn1c(=O)c2c(ncn2C)n(C)c1=O

>  <ASSIGNED_CATEGORY>
n

$$$$
>  <MOLECULE>
Oc1ccc(-c2nc(-c3ccc(F)cc3)c(-c3ccncc3)[nH]2)cc1

>  <ASSIGNED_CATEGORY>
n

$$$$
>  <MOLECULE>
NC(=O)OCC(COC(N)=O)c1ccccc1

>  <ASSIGNED_CATEGORY>
y

$$$$
>  <MOLECULE>
COc1cc(C(O)CN)ccc1O (centres undefined)

>  <ASSIGNED_CATEGORY>
y

$$$$
>  <MOLECULE>
[Li+]

>  <ASSIGNED_CATEGORY>
y

$$$$
>  <MOLECULE>
CC1C(=O)N(C)C(=O)c2nc[nH]c21 (centres undefined)

>  <ASSIGNED_CATEGORY>
n

$$$$
>  <MOLECULE>
N[C@H](CCCCCP(=O)(O)O)C(=O)O

>  <ASSIGNED_CATEGORY>
y

$$$$
>  <MOLECULE>
C=CCN1CC[C@]23c4c5ccc(O)c4O[C@H]2/C(=N/NC(=O)c2ccccc2)CC[C@@]3(O)[C@H]1C5

>  <ASSIGNED_CATEGORY>
n

$$$$
>  <MOLECULE>
NCCCCCC(=O)O

>  <ASSIGNED_CATEGORY>
n

$$$$
>  <MOLECULE>
CCCCCCCCCCCCC/C=C/C(O)C(N)CO (centres undefined)

>  <ASSIGNED_CATEGORY>
n

$$$$
>  <MOLECULE>
COc1ccccc1N1CCN(CCCCN2C(=O)c3ccccc3C2=O)CC1

>  <ASSIGNED_CATEGORY>
n

$$$$
>  <MOLECULE>
COc1cc(OC)c(/C=C2/C(=O)Nc3ccccc32)c(OC)c1

>  <ASSIGNED_CATEGORY>
y

$$$$
>  <MOLECULE>
CC(N)=NCCCC[C@@H](N)C(=O)O

>  <ASSIGNED_CATEGORY>
y

$$$$
>  <MOLECULE>
NC(=O)c1ncn([C@@H]2O[C@H](CO)[C@@H](O)[C@H]2O)c1O

>  <ASSIGNED_CATEGORY>
n

$$$$
>  <MOLECULE>
CC(=O)[C@]1(O)Cc2c(O)c3c(c(O)c2[C@@H](O[C@H]2C[C@H](N)[C@H](O)[C@H](C)O2)C1)C(=O)c1ccccc1C3=O

>  <ASSIGNED_CATEGORY>
y

$$$$
>  <MOLECULE>
NC(=S)NCCCC(N)C(=O)O (centres undefined)

>  <ASSIGNED_CATEGORY>
n

$$$$
>  <MOLECULE>
Cc1scc2c1N(C(=O)CN1CCN(C)CC1)c1ccccc1NC2=O

>  <ASSIGNED_CATEGORY>
n

$$$$
>  <MOLECULE>
CC(C)C[C@H](NC(=O)C1OC1C(=O)O)C(=O)NCCCCN=C(N)N (some centres undefined)

>  <ASSIGNED_CATEGORY>
n

$$$$
>  <MOLECULE>
CCn1c(=O)c2[nH]c(-c3ccccc3)nc2n(CC)c1=O

>  <ASSIGNED_CATEGORY>
y

$$$$
>  <MOLECULE>
CC(=O)N1CCN(c2ccc(OC[C@H]3CO[C@](Cn4ccnc4)(c4ccc(Cl)cc4Cl)O3)cc2)CC1

>  <ASSIGNED_CATEGORY>
n

$$$$
>  <MOLECULE>
CC(=O)[C@H]1CCC2C3CC=C4C[C@@H](OS(=O)(=O)O)CC[C@]4(C)C3CC[C@@]21C (some centres undefined)

>  <ASSIGNED_CATEGORY>
y

$$$$
